Molecular target: TDO2 (Homo sapiens)
Construct: decreased levels of NFK in SW48 cells (high TDO expressing cells)
Sequence (P48775 whole entry): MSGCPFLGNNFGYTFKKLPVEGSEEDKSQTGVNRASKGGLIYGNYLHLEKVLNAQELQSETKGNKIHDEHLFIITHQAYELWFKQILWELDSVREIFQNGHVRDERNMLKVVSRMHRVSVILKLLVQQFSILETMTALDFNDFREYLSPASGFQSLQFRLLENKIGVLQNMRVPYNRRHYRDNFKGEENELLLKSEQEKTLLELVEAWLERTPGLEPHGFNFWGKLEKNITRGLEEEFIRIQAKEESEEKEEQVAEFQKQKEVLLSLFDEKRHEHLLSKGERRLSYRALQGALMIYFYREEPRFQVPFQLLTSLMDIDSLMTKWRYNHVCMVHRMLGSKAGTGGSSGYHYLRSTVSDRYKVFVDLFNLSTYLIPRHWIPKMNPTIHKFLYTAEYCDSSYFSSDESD
Experiment: TDO2 cell assay (NFK GreenScreen, SW48 cells)
Format: cell-based
Settings: SW48 cells (high TDO expressing), 200 uM tryptophan, 24 hours; Table 3; read-out: TDO2 Cell Fluor EC50
measured.property: EC50 (nM)

compound	measured.property	rel	experimental.result
OC1c2ccnn2CCCC1C1c2ccccc2-c2cncn21 (single isomer, unassigned) [Example 133b]	EC50	=	940
CCS(=O)(=O)N1CCC2(CC1)CC(C1c3ccccc3-c3cncn31)C2O (single isomer, unassigned) [Example 114e]	EC50	=	1200
O[C@@H](C1CCOCC1)[C@@H]1c2ccccc2-c2cncn21 (single isomer, unassigned) [Example 138c]	EC50	>	25000
NC(=O)c1ccc2c(n1)CCC(C1c3ccccc3-c3cncn31)C2O (single isomer, unassigned) [Example 104d]	EC50	=	14000
